Entries annotated with measured IC50
Target: DGKζ (Homo sapiens)
Sequence (Q13574 1-929 isoform Q13574-4): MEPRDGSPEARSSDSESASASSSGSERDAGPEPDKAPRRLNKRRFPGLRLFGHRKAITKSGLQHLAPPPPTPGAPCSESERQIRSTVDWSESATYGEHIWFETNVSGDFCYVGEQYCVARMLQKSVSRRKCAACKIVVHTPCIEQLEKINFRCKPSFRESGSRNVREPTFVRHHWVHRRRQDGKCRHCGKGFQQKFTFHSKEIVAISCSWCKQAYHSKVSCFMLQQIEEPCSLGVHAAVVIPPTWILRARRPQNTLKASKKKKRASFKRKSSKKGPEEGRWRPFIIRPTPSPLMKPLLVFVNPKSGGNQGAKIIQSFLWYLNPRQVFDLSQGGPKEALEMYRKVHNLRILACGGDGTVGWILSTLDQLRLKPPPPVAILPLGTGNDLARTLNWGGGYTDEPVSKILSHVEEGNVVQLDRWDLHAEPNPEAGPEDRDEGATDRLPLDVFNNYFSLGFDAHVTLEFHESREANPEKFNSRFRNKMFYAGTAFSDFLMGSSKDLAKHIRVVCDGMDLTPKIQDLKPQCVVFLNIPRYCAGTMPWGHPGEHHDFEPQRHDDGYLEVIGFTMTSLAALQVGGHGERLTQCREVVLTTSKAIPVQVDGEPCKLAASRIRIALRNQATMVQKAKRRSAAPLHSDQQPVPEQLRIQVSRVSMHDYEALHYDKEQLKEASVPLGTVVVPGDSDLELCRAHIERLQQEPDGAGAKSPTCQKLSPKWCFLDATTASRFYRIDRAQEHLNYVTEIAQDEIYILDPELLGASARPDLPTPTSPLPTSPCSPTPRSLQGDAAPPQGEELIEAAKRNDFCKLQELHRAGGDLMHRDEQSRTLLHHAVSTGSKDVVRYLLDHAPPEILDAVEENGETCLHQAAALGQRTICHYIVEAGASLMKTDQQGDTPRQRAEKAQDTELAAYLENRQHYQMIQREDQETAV

{"Compound": "Cn1c(=O)cc(N(C)[C@H]2CC[C@@H](N(CC3COCCO3)c3cccc4c3OCO4)CC2)c2nc(C#N)ccc21 (single isomer, unassigned) [Example 195]", "IC50": "0.1 to 1 µM"}
{"Compound": "Cc1ccc(N(CC2CC2)[C@H]2CC[C@H](N(C)c3c(C#N)c(=O)n(C)c4ccc(C#N)nc34)CC2)cc1 [Example 128]", "IC50": "0.1 to 1 µM"}
{"Compound": "Cn1c(=O)c(C#N)c(N(C)[C@H]2CC[C@H](N(CC3CC3)c3cccc(F)c3)CC2)c2nc(Cl)ccc21 [Example 23]", "IC50": "0.1 to 1 µM"}
{"Compound": "Cc1cc(F)c(F)cc1N(CC1CCC1)[C@H]1CC[C@H](N(C)c2c(C#N)c(=O)n(C)c3ccc(C#N)nc23)CC1 [Example 138]", "IC50": "≥ 1 µM"}
{"Compound": "CN1C(=O)COc2ccc(N(CC3CC3)[C@H]3CC[C@@H](N(C)c4c(C#N)c(=O)n(C)c5ccc(C#N)nc45)CC3)cc21 [Example 198]", "IC50": "≥ 1 µM"}
{"Compound": "Cc1cc(F)cc(N(CC2CC2)[C@H]2CC[C@H](N(C)c3cc(=O)n(C)c4ccc(C#N)nc34)CC2)c1 [Example 89]", "IC50": "≥ 1 µM"}
{"Compound": "Cn1c(=O)c(C#N)c(N(C)[C@H]2CC[C@H](N(CC3CCOC3)c3ccc(F)cc3)CC2)c2nc(C#N)ccc21 (relative stereo) [Example 56]", "IC50": "≥ 1 µM"}
{"Compound": "Cc1cc(F)cc(N(CC2CCC2)[C@H]2CC[C@@H](N(C)c3c(C#N)c(=O)n(C)c4ccc(C#N)nc34)CC2)c1 [Example 113]", "IC50": "0.01 to 0.1 µM"}
{"Compound": "Cn1c(=O)c(C#N)c(N(C)[C@H]2CC[C@@H](N(c3ccc(F)cc3F)C3CC3)CC2)c2nc(Cl)ccc21 [Example 3CC]", "IC50": "≥ 1 µM"}
{"Compound": "Cn1c(=O)c(C#N)c(N(C)[C@H]2CC[C@H](N(c3ccc(F)cc3)C3CCC3)CC2)c2nc(Cl)ccc21 [Example 20]", "IC50": "≥ 1 µM"}

Ask: Entry Cn1c(=O)c(C#N)c(N(C)[C@H]2CC[C@H](N(CC3CCC3)c3ccc(F)cc3CO)CC2)c2nc(C#N)ccc21 [Example 155] : reported IC50 = ?
Reply: 0.01 to 0.1 µM

Ask: Quick check: IC50 of Cn1c(=O)c(C#N)c(N(C)[C@H]2CC[C@@H](N(CC3CC3)c3cc(F)cc(F)c3)CC2)c2nc(C#N)ccc21 [Example 81] ?
Reply: 0.01 to 0.1 µM

Ask: Given the entry Cn1c(=O)c(C#N)c(N(C)[C@H]2CC[C@@H](N(c3ccc(F)cc3)C3CCC3)CC2)c2nc(Cl)ccc21 [Example 10] , report its measured IC50.
Reply: 0.1 to 1 µM

Ask: Look at this compound and give its reported IC50. Cc1ccccc1N(CC1CC1)[C@H]1CC[C@H](N(C)c2cc(=O)n(C)c3ccc(C#N)nc23)CC1 [Example 70]
Reply: 0.1 to 1 µM
